Test: molar heat capacity at constant pressure
Conditions: 230 K; 101.33 kPa; Crystal
observable: molar heat capacity at constant pressure (J/K/mol)

Consider the reported molar heat capacity at constant pressure for these compounds:
CCCCCCCCCCCC(=O)OC [methyl dodecanoate]    288.57
CCCCCCCCCCCCCC(=O)OC [methyl tetradecanoate]    321.05

a = CCCCCCCCCCCCCCCCCC(=O)OC [methyl octadecanoate]
b = CCCCCCCCCCC(=O)OC [methyl undecanoate]
Query :: # min-compare on molar heat capacity at constant pressure between a and b Kindly give the label for the entry you pick.
Result :: b

----------
Assay: molar heat capacity at constant pressure
Conditions: 190 K; 101.33 kPa; Crystal
observable: molar heat capacity at constant pressure (J/K/mol)

Worked cases, answers included:
CCCCCCCCCCCCCCCCCCCC(=O)OC [methyl eicosanoate]    366.99
CCCCCCCCCCCC(=O)OC [methyl dodecanoate]    246.66
CCCCCCCCCCCCCCCCC(=O)OC [methyl heptadecanoate]    326.38
CCCCCCCCCCC(=O)OC [methyl undecanoate]    235.38
CCCCCCCCCCCCCCCCCCC(=O)OC [methyl nonadecanoate]    353.2
CCCCCCCCCCCCCCCCCC(=O)OC [methyl octadecanoate]    341.65
CCCCCCCCCC(=O)OC [methyl decanoate]    217.44
CCCCCCCCC(=O)OC [methyl nonanoate]    206.56
CCCCCCCCCCCCCCCC(=O)OC [methyl hexadecanoate]    306.8
CCCCCCCCCCCCC(=O)OC [methyl tridecanoate]    264.04

1 = CCCCCCCCCCCCCCC(=O)OC [methyl pentadecanoate]
2 = CCCCCCCC(=O)OC [methyl octanoate]
Query :: Consider entries 1 and 2 . Which has the numerically lower molar heat capacity at constant pressure? # reply format: chosen label
Result :: 2
(2: 188.84 J/K/mol, 1: 293.1 J/K/mol)

----------
Assay: molar heat capacity at constant pressure
Conditions: 5 K; 101.33 kPa; Crystal
observable: molar heat capacity at constant pressure (J/K/mol)

The examples below pair each entry with its known result.
CCCCCCCCC(=O)OC [methyl nonanoate]    0.39
CCCCCCCCCCCCCCCC(=O)OC [methyl hexadecanoate]    0.66
CCCCCCCCCCCCCC(=O)OC [methyl tetradecanoate]    0.55

P = CCCCCCCCCCCC(=O)OC [methyl dodecanoate]
Q = CCCCCCCCCCCCCCCCCC(=O)OC [methyl octadecanoate]
Query :: Among P and Q , whose measured molar heat capacity at constant pressure is the smaller figure? I would appreciate it if you answered with the label of your choice.
Result :: P
(P: 0.5 J/K/mol, Q: 0.82 J/K/mol)

a = CCCCCCCCCCC(=O)OC [methyl undecanoate]
b = CCCCCCCCCCCCCCCCCCC(=O)OC [methyl nonadecanoate]
Query :: Just curious, which one has the larger molar heat capacity at constant pressure reading, a or b ? The response must carry the label of the picked entry.
Result :: b
(b: 0.69 J/K/mol, a: 0.42 J/K/mol)

I = CCCCCCCC(=O)OC [methyl octanoate]
II = CCCCCCCCCCCCCCCCC(=O)OC [methyl heptadecanoate]
Query :: Please let me know which one, I or II , has a lower measured molar heat capacity at constant pressure value. State your choice using its label.
Result :: I
(I: 0.38 J/K/mol, II: 0.56 J/K/mol)

----------
Experiment: molar heat capacity at constant pressure
Details: 90 K; 101.33 kPa; Crystal
observable: molar heat capacity at constant pressure (J/K/mol)

Use these answered entries as a reference point.
CCCCCCCCCCCCCCCCCCC(=O)OC [methyl nonadecanoate]    210.18
CCCCCCCCCCCC(=O)OC [methyl dodecanoate]    148.81
CCCCCCCCCCCCC(=O)OC [methyl tridecanoate]    158.95
CCCCCCCCC(=O)OC [methyl nonanoate]    123.98

a = CCCCCCCCCC(=O)OC [methyl decanoate]
b = CCCCCCCCCCCCCCCCC(=O)OC [methyl heptadecanoate]
Query :: Consider entries a and b . Which has the numerically lower molar heat capacity at constant pressure? Answer = label.
Result :: a

A = CCCCCCCCCCC(=O)OC [methyl undecanoate]
B = CCCCCCCCCCCCCCCCCCCC(=O)OC [methyl eicosanoate]
Query :: Task for the reader: decide whether A or B has the larger molar heat capacity at constant pressure. Returns: label corresponding to the selected item.
Result :: B

I = CCCCCCCCCCCCCCC(=O)OC [methyl pentadecanoate]
II = CCCCCCCC(=O)OC [methyl octanoate]
Query :: Could you tell me which of I and II has the lower molar heat capacity at constant pressure reading? Your choice should be expressed through its label.
Result :: II

----------
Assay: molar heat capacity at constant pressure
Conditions: 50 K; 101.33 kPa; Crystal
observable: molar heat capacity at constant pressure (J/K/mol)

CCCCCCCCCCCCCCCCCCC(=O)OC [methyl nonadecanoate]    117.8
CCCCCCCCCCCCCCCCC(=O)OC [methyl heptadecanoate]    106.88
CCCCCCCCCCCC(=O)OC [methyl dodecanoate]    85.07
CCCCCCCCCCC(=O)OC [methyl undecanoate]    80.21
CCCCCCCCC(=O)OC [methyl nonanoate]    71.31
CCCCCCCC(=O)OC [methyl octanoate]    66.36
CCCCCCCCCC(=O)OC [methyl decanoate]    75.63
CCCCCCCCCCCCCCC(=O)OC [methyl pentadecanoate]    97.58
CCCCCCCCCCCCCC(=O)OC [methyl tetradecanoate]    93.62
CCCCCCCCCCCCCCCCCC(=O)OC [methyl octadecanoate]    112.11
CCCCCCCCCCCCCCCC(=O)OC [methyl hexadecanoate]    104.12
CCCCCCCCCCCCCCCCCCCC(=O)OC [methyl eicosanoate]    122.31
CCCCCCCCCCCCC(=O)OC [methyl tridecanoate]    89.16

----------
Test: molar heat capacity at constant pressure
Details: 320 K; 101.33 kPa; Liquid
observable: molar heat capacity at constant pressure (J/K/mol)

Some entries whose results are on file:
CCCCCCCCCCC(=O)OC [methyl undecanoate]    416.08
CCCCCCCCCCCCCCCCC(=O)OC [methyl heptadecanoate]    605.44
CCCCCCCCCC(=O)OC [methyl decanoate]    385.19
CCCCCCCCCCCCC(=O)OC [methyl tridecanoate]    479.3

1 = CCCCCCCCCCCCCCCCCC(=O)OC [methyl octadecanoate]
2 = CCCCCCCC(=O)OC [methyl octanoate]
Query :: Sort 1 and 2 by molar heat capacity at constant pressure descending and give the first. Please reply using the label of the selected record.
Result :: 1
(1: 639 J/K/mol, 2: 323.19 J/K/mol)

----------
Experiment: molar heat capacity at constant pressure
Settings: 10 K; 101.33 kPa; Crystal
observable: molar heat capacity at constant pressure (J/K/mol)

Example entries begin here.
CCCCCCCCCCCCCCCCCCCC(=O)OC [methyl eicosanoate]    5.46
CCCCCCCCCCCCCCCCCC(=O)OC [methyl octadecanoate]    5.96
CCCCCCCCC(=O)OC [methyl nonanoate]    2.96
CCCCCCCCCCCCCCCC(=O)OC [methyl hexadecanoate]    5.56
CCCCCCCCCCCCCCC(=O)OC [methyl pentadecanoate]    4.15
CCCCCCCCCC(=O)OC [methyl decanoate]    3.7

P = CCCCCCCC(=O)OC [methyl octanoate]
Q = CCCCCCCCCCCCCCCCC(=O)OC [methyl heptadecanoate]
Query :: Please indicate which has the smaller reported molar heat capacity at constant pressure: P , or Q . // return label of chosen record
Result :: P

----------
Assay: molar heat capacity at constant pressure
Conditions: 80 K; 101.33 kPa; Crystal
observable: molar heat capacity at constant pressure (J/K/mol)

CCCCCCCCC(=O)OC [methyl nonanoate]    113.08
CCCCCCCCCCCCC(=O)OC [methyl tridecanoate]    144.45
CCCCCCCCCCCCCCCCC(=O)OC [methyl heptadecanoate]    175.53

a = CCCCCCCCCCCCCCCCCCCC(=O)OC [methyl eicosanoate]
b = CCCCCCCC(=O)OC [methyl octanoate]
Query :: Out of a and b , name the one with the higher molar heat capacity at constant pressure. Please respond with the label that marks your chosen entry.
Result :: a
(a: 199.8 J/K/mol, b: 103.39 J/K/mol)

----------
Experiment: molar heat capacity at constant pressure
Details: 160 K; 101.33 kPa; Crystal
observable: molar heat capacity at constant pressure (J/K/mol)

See these solved cases before continuing.
CCCCCCCCCCCCCC(=O)OC [methyl tetradecanoate]    244.79
CCCCCCCC(=O)OC [methyl octanoate]    167.13
CCCCCCCCCCCCCCCCC(=O)OC [methyl heptadecanoate]    284.57
CCCCCCCCCC(=O)OC [methyl decanoate]    192.99
CCCCCCCCC(=O)OC [methyl nonanoate]    183.23
CCCCCCCCCCCCCCCCCCC(=O)OC [methyl nonadecanoate]    313.53

P = CCCCCCCCCCCC(=O)OC [methyl dodecanoate]
Q = CCCCCCCCCCCCCCCCCCCC(=O)OC [methyl eicosanoate]
Query :: Form: Entry with minimum molar heat capacity at constant pressure (choose one): P / Q Choose, then provide that item's label.
Result :: P

a = CCCCCCCCCCCCCCCCCC(=O)OC [methyl octadecanoate]
b = CCCCCCCCCCC(=O)OC [methyl undecanoate]
Query :: From the recorded data, which exceeds the other in molar heat capacity at constant pressure: a or b ? Lab log: write the label of the selected item as the result.
Result :: a
(a: 299.33 J/K/mol, b: 209.38 J/K/mol)
